Hi there, I'd appreciate the recorded pEC50 for every entry that follows.
# ASSAY_TARGET: hNK2R (Homo sapiens)
# Construct: host or cells: COS-7
# Sequence (P21452 1-398): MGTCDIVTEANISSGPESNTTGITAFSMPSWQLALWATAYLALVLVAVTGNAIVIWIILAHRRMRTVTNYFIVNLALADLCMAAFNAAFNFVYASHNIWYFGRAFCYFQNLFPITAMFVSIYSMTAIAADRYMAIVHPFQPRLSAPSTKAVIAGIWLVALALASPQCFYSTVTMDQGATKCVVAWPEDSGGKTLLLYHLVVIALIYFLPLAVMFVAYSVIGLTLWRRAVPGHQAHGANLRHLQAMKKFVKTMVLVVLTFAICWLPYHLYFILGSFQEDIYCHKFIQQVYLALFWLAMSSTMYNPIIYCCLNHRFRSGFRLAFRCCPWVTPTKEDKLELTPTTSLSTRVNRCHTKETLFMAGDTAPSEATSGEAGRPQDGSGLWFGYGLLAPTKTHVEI
# PROTOCOL_TEXT: Hithunter cAMP assay (Gs-coupling) in transfected COS-7 cells
# Format: cell-based
# CONDITION_SUMMARY: COS-7 cells
Numbered stars: 1 amine (or outer) side, 2 acyl side, 3 side chain; on linkers, the order of the positions; unused ones are H or OH. Square brackets hold non-standard residues; d marks the D form. Peptide text beside a SMILES is read from it. * marks the point of attachment. C18 diacid = O=C(O)CCCCCCCCCCCCCCCCC(=O)*; Phe(4-F) = N[C@@H](Cc1ccc(F)cc1)C(=O)O; γGlu = O=C(O)[C@H](CCC(=O)[*:2])N[*:1]; NMeL = CN[C@@H](CC(C)C)C(=O)O; hSer = N[C@@H](CCO)C(=O)O; AEEA = NCCOCCOCC(=O)O; Aib = CC(C)(N)C(=O)O
Reminder that pEC50 is minus the log10 of a molar concentration.

Q. Bench note: what pEC50 did CCCC[C@H](NC(=O)[C@H](CC(C)C)N(C)C(=O)CNC(=O)[C@@H](NC(=O)[C@H](Cc1ccccc1)NC(=O)[C@H](CCCCN)NC(=O)[C@H](CC(=O)O)NC(=O)COCCOCCNC(=O)COCCOCCNC(=O)CC[C@H](NC(=O)CCCCCCCCCCCCCCCCC(=O)O)C(=O)O)C(C)C)C(N)=O show?
A. 8.64

Q. // returns reported pEC50 for input COCC[C@H](NC(=O)[C@H](CC(C)C)NC(=O)C(C)(C)NC(=O)[C@@H](NC(=O)[C@H](Cc1ccc(O)cc1)NC(=O)[C@H](CCCCN)NC(=O)[C@H](CC(=O)O)NC(=O)COCCOCCNC(=O)COCCOCCNC(=O)CC[C@H](NC(=O)CCCCCCCCCCCCCCCCC(=O)O)C(=O)O)C(C)C)C(N)=O [compound 394, *Asp;Lys;Tyr;Val;Aib;Leu;Metox;NH2] ({C18 diacid-γGlu-AEEA-AEEA}-DKYV[Aib]L[hSer](Me)-NH2)
A. 6.51

Q. Recorded pEC50 for COCC[C@H](NC(=O)[C@H](CC(C)C)N(C)C(=O)CNC(=O)[C@@H](NC(=O)[C@H](Cc1ccc(O)cc1)NC(=O)[C@H](CCCCN)NC(=O)[C@H](CC(=O)O)NC(=O)COCCOCCNC(=O)COCCOCCNC(=O)CC[C@H](NC(=O)CCCCCCCCCCCCCCCCC(=O)O)C(=O)O)C(C)C)C(N)=O [compound 344, *Asp;Lys;Tyr;Val;Gly;NmLeu;Metox;NH2] ({C18 diacid-γGlu-AEEA-AEEA}-DKYVG[NMeL][hSer](Me)-NH2) , please?
A. 7.55

Q. Fill in the blank: the reported pEC50 of CSCC[C@H](NC(=O)[C@H](CC(C)C)N(C)C(=O)CNC(=O)[C@@H](NC(=O)[C@H](Cc1ccc(O)cc1)NC(=O)[C@H](CCCCN)NC(=O)[C@H](CC(=O)O)NC(=O)COCCOCCNC(=O)COCCOCCNC(=O)CC[C@H](NC(=O)CCCCCCCCCCCCCCCCC(=O)O)C(=O)O)C(C)C)C(N)=O [compound 316, *Asp;Lys;Tyr;Val;Gly;NmLeu;Met;NH2] ({C18 diacid-γGlu-AEEA-AEEA}-DKYVG[NMeL]M-NH2) is ____.
A. 7.70

Q. Returns the measured pEC50 for the input molecule. Input: CC(C)C[C@@H](C(=O)N[C@@H](Cc1ccc(F)cc1)C(N)=O)N(C)C(=O)CNC(=O)[C@@H](NC(=O)[C@H](Cc1ccc(O)cc1)NC(=O)[C@H](CCCCN)NC(=O)[C@H](CC(=O)O)NC(=O)COCCOCCNC(=O)COCCOCCNC(=O)CC[C@H](NC(=O)CCCCCCCCCCCCCCCCC(=O)O)C(=O)O)C(C)C [compound 369, *Asp;Lys;Tyr;Val;Gly;NmLeu;4-F-Phe;NH2] ({C18 diacid-γGlu-AEEA-AEEA}-DKYVG[NMeL][Phe(4-F)]-NH2)
A. 7.27
